# TEST SYSTEM: GST-Nv-NF-kB (Ser allele) (Nematostella vectensis, UniProt A7UNT2 2-411)
# Sequence: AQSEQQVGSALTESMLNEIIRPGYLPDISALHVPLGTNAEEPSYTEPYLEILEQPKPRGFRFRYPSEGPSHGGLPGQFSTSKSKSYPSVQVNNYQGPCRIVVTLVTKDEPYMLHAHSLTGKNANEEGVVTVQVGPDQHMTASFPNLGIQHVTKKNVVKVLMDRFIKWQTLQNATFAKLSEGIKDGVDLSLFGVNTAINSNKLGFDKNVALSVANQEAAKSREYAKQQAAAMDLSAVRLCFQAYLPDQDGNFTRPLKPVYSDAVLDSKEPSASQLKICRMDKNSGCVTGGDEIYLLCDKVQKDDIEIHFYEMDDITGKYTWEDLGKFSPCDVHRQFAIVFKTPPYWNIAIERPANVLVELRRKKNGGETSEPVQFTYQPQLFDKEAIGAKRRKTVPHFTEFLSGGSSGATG
# ASSAY NOTES: protein-binding microarray (PBM); PBM: ~300 nM protein, 6 mM HEPES pH 7.8, 80 mM KCl, 0.5 mM EDTA, 0.5 mM EGTA, 6% glycerol, 35 ng/ul poly-dIdC, 1% milk, 1 h, room temperature; high values mean tight binding
# CONDITION: dsDNA, one strand shown
Field: binding signal. Provide a value for each of the sequences that follow.
# unit: z-score | format: bare number

stdin: Fill in: binding signal of CCGATTAACATCAGGGGGATGGATGATGTTAATCGGGTCTTGATTCGCTTGACGCTGCTG is ___
stdout: 4.26

stdin: Fill in: binding signal of CCGATTAACATCAGGAATGTCCCTGATGTTAATCGGGTCTTGATTCGCTTGACGCTGCTG is ___
stdout: 3.65

stdin: Fill in: binding signal of CCGATTAACATCACGGGGTTCCCTGATGTTAATCGGGTCTTGATTCGCTTGACGCTGCTG is ___
stdout: 1.48

stdin: Fill in: binding signal of CCGATTAACATCAAAAAATCCCTTGATGTTAATCGGGTCTTGATTCGCTTGACGCTGCTG is ___
stdout: 5.87

stdin: Fill in: binding signal of CCGATTAACATCAAAAAAAATCCTGATGTTAATCGGGTCTTGATTCGCTTGACGCTGCTG is ___
stdout: 1.23

stdin: Fill in: binding signal of CCGATTAACATCACAGAAACCCCTGATGTTAATCGGGTCTTGATTCGCTTGACGCTGCTG is ___
stdout: 4.97

stdin: Fill in: binding signal of CCGATTAACATCAGGGGACGTTATGATGTTAATCGGGTCTTGATTCGCTTGACGCTGCTG is ___
stdout: 4.91

stdin: Fill in: binding signal of CCGATTAACATCAAGGGGGGTTATGATGTTAATCGGGTCTTGATTCGCTTGACGCTGCTG is ___
stdout: 5.24

stdin: Fill in: binding signal of CCGATTAACATCACGGAAGTCCCTGATGTTAATCGGGTCTTGATTCGCTTGACGCTGCTG is ___
stdout: 5.32

---

# TEST SYSTEM: GST-Nv-NF-kB (Ser allele) (Nematostella vectensis, UniProt A7UNT2 2-411)
# Sequence: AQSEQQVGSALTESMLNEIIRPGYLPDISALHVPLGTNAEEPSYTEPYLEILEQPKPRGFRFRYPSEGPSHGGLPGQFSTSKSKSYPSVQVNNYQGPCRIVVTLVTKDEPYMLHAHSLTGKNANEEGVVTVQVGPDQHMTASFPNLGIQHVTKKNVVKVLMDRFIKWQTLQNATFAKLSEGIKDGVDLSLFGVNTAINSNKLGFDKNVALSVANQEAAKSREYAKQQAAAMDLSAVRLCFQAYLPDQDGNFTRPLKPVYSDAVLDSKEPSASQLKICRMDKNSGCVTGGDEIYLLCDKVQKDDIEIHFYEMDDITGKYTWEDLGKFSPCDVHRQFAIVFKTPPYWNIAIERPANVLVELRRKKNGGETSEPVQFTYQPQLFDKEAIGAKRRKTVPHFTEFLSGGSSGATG
# ASSAY NOTES: protein-binding microarray (PBM); PBM: ~300 nM protein, 6 mM HEPES pH 7.8, 80 mM KCl, 0.5 mM EDTA, 0.5 mM EGTA, 6% glycerol, 35 ng/ul poly-dIdC, 1% milk, 1 h, room temperature; Ap Aiptasia and Nv Nematostella (sea anemones) / Co Capsaspora / Aq Amphimedon (sponge) / Dm Drosophila / Hu human; RHD is the Rel homology domain; high values mean tight binding
# CONDITION: dsDNA, one strand shown
Field: binding signal. Provide a value for each of the sequences that follow.

stdin: Fill in: binding signal of CCGATTAACATCAGGGGGTGGAATGATGTTAATCGGGTCTTGATTCGCTTGACGCTGCTG is ___
stdout: 4.75 z-score

stdin: Fill in: binding signal of CCGATTAACATCAGGGTAATTTATGATGTTAATCGGGTCTTGATTCGCTTGACGCTGCTG is ___
stdout: 6 z-score

stdin: Fill in: binding signal of CCGATTAACATCAGGGAGTTCCATGATGTTAATCGGGTCTTGATTCGCTTGACGCTGCTG is ___
stdout: 2.53 z-score

stdin: Fill in: binding signal of CCGATTAACATCAATTACCCCCCTGATGTTAATCGGGTCTTGATTCGCTTGACGCTGCTG is ___
stdout: 5.22 z-score

stdin: Fill in: binding signal of CCGATTAACATCAAATGACCCCCTGATGTTAATCGGGTCTTGATTCGCTTGACGCTGCTG is ___
stdout: 2.69 z-score

stdin: Fill in: binding signal of CCGATTAACATCAAGGTACCCCCTGATGTTAATCGGGTCTTGATTCGCTTGACGCTGCTG is ___
stdout: 3.84 z-score

stdin: Fill in: binding signal of CCGATTAACATCATCTGGGAAAATGATGTTAATCGGGTCTTGATTCGCTTGACGCTGCTG is ___
stdout: 4.03 z-score

stdin: Fill in: binding signal of CCGATTAACATCAGGGGGTACACTGATGTTAATCGGGTCTTGATTCGCTTGACGCTGCTG is ___
stdout: 3.94 z-score

stdin: Fill in: binding signal of CCGATTAACATCACACCCCCCCCTGATGTTAATCGGGTCTTGATTCGCTTGACGCTGCTG is ___
stdout: 3.66 z-score

stdin: Fill in: binding signal of CCGATTAACATCACCCAGGGAAATGATGTTAATCGGGTCTTGATTCGCTTGACGCTGCTG is ___
stdout: 1.97 z-score

stdin: Fill in: binding signal of CCGATTAACATCAGGACTGTCCCTGATGTTAATCGGGTCTTGATTCGCTTGACGCTGCTG is ___
stdout: 2.57 z-score

stdin: Fill in: binding signal of CCGATTAACATCAGTACGGGAAATGATGTTAATCGGGTCTTGATTCGCTTGACGCTGCTG is ___
stdout: 2.82 z-score

stdin: Fill in: binding signal of CCGATTAACATCAGGAAAACACCTGATGTTAATCGGGTCTTGATTCGCTTGACGCTGCTG is ___
stdout: 3.23 z-score

stdin: Fill in: binding signal of CCGATTAACATCAGGTAATTCCATGATGTTAATCGGGTCTTGATTCGCTTGACGCTGCTG is ___
stdout: 3.72 z-score

stdin: Fill in: binding signal of CCGATTAACATCAGGGGGGGTCATGATGTTAATCGGGTCTTGATTCGCTTGACGCTGCTG is ___
stdout: 1.92 z-score

stdin: Fill in: binding signal of CCGATTAACATCAAACCCCCCCTTGATGTTAATCGGGTCTTGATTCGCTTGACGCTGCTG is ___
stdout: 4.97 z-score

stdin: Fill in: binding signal of CCGATTAACATCACATATCCCCCTGATGTTAATCGGGTCTTGATTCGCTTGACGCTGCTG is ___
stdout: 6.2 z-score

stdin: Fill in: binding signal of CCGATTAACATCAGGGGGGCACCTGATGTTAATCGGGTCTTGATTCGCTTGACGCTGCTG is ___
stdout: 2 z-score
